Where do the numbers come from? From PubChem BioAssay.

- targetSystem: NADPH oxidase 5 (Homo sapiens) (UniProt Q96PH1)
- Sequence (Q96PH1 whole entry, looked up): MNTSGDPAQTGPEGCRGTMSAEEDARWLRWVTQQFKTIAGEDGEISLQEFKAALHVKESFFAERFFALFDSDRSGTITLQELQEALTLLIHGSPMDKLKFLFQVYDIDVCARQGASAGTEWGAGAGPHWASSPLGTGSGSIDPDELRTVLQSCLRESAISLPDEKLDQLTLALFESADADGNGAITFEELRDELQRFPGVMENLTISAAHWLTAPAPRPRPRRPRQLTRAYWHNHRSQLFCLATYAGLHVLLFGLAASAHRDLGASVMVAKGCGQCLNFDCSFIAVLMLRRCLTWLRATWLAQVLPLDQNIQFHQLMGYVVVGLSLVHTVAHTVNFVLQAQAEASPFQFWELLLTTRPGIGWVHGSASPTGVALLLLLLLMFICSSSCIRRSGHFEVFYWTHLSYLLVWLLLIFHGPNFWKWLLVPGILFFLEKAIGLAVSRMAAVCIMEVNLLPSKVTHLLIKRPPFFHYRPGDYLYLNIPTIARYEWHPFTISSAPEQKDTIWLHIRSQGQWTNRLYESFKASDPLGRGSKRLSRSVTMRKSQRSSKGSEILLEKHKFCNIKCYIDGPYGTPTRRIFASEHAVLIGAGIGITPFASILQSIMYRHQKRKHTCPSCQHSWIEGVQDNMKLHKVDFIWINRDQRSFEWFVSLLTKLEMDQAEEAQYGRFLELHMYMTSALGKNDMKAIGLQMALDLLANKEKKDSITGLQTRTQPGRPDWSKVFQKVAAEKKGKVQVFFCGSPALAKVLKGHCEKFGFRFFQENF
- testName: NOX5-dependent H2O2 signal modulators, primary screen, NOX inhibitor project, cell-based, HEK293-NOX5, Amplex Red fluorescence (AID 1161)
- testContext: HEK293-NOX5, ionomycin, 45 min, higher = more signal
Measured z-score by item
Lab note: jot down the number only; don't add units.

Below: 8 compounds and their reported z-score.
compound	parameter	reported
O=c1oc(-c2ccccc2)nc2cc(Br)ccc12	z-score	-0.291
COC(=O)c1ccc(C(O)C2C=CC3C(=O)N(c4ccccc4)C(=O)C3N2Nc2ccc(C#N)cc2)o1 (centres undefined)	z-score	-2.23
Cc1cc(C)c(C(O)C2C=CC3C(=O)N(c4ccccc4)C(=O)C3N2Nc2ccc(C#N)cc2)c(C)c1 (centres undefined)	z-score	-2.1
C=CCC(OC(C)=O)[C@@H]1[C@@H](N(Cc2ccc(-c3cccc(C(F)(F)F)c3)o2)C(=O)c2ccc(C)cc2)c2cc(OCCCO)ccc2N1C(=O)c1ccc(-c2ccccc2)cc1 (some centres undefined)	z-score	2.25
CC(=O)NCCCC[C@@H]1NC(=O)[C@@H]2C[C@H](C(=O)NCCCCN(C)C)[C@H](c3ccc(O)cc3)N2C1=O	z-score	0.546
O=C1O[C@H](c2ccccc2)[C@H](c2ccccc2)N2[C@H]1[C@@H](C(=O)Nc1nc3ccccc3s1)[C@]1(C(=O)Nc3ccccc31)[C@H]2c1ccc(O)cc1	z-score	0.201
CCOC(=O)C1=C[C@@H](CC)N(S(=O)(=O)c2ccc(C)cc2)[C@H]1c1ccccc1	z-score	-0.182
CC(C)(C)OC(=O)CC[C@@]1(C(=O)NCCN2CCOCC2)N=C(c2ccc(OCCCO)cc2)O[C@@H]1c1ccccc1	z-score	1.8

q: // fetch z-score; item: "C=C[C@@H](COC(C)=O)N(Cc1ccccc1[N+](=O)[O-])S(=O)(=O)c1ccc(Br)cc1" ; system: NADPH oxidase 5 (Homo sapiens) (UniProt Q96PH1)
a: -1.98

q: State measured z-score of the compound CCOc1cc(C(O)C2C=CC3C(=O)N(c4ccccc4)C(=O)C3N2Nc2ccc([N+](=O)[O-])cc2)ccc1O (centres undefined) with NADPH oxidase 5 (Homo sapiens) (UniProt Q96PH1).
a: -4.11
